test system: Herpes Simplex Virus type 1 (HSV-1); assay: Antiviral activity against HSV-1 determined by Dr. R. G. Hughes, Jr.;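 also: grades: +++ strong ++ moderate + light ± questionable - negative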; assay type: cell-based; conditions: 100 μg/disk
RECORDED ENDPOINT: HSV-1 activity

Examples with answers:
| MOLECULE | RESULT |
| --- | --- |
| NC1=NC(=O)C(C2C(CNC(=O)c3cc(Br)c[nH]3)C(CNC(=O)c3cc(Br)c[nH]3)C2c2cnc(N)[nH]2)N1 (centres unmarked) [Compound 8a, Oxysceptrin Acetate] | + |
| Nc1ncc(C2c3nc(N)[nH]c3CC(CNC(=O)c3cc(Br)c[nH]3)C2CNC(=O)c2cc(Br)c[nH]2)[nH]1 (centres unmarked) [Compound 4a, Ageliferin Acetate] | ++ |
| NC1=NC(=O)C(C2C(CNC(=O)c3ccc[nH]3)C(CNC(=O)c3cc(Br)c[nH]3)C2c2cnc(N)[nH]2)N1 (centres unmarked) [Compound 7a, Debromooxysceptrin Acetate] | - |
| Nc1ncc([C@@H]2[C@@H](CNC(=O)c3cc(Br)c[nH]3)[C@H](CNC(=O)c3cc(Br)c[nH]3)[C@H]2c2cnc(N)[nH]2)[nH]1 (relative stereo) [Compound 2a, Sceptrin Acetate] | ++ |

Please find the next molecule below.
Q: Quick check: HSV-1 activity of Nc1ncc([C@@H]2[C@@H](CNC(=O)c3cc(Br)c(Br)[nH]3)[C@H](CNC(=O)c3cc(Br)c(Br)[nH]3)[C@H]2c2cnc(N)[nH]2)[nH]1 (relative stereo) [Compound 3a, Dibromosceptrin Acetate] ?
Ans: +++

From: patent US4737510A
